tested on: HMLE_sh_eGFP viability, CellTiter-Glo luminescence, 72 h; assay: cytotoxicity in control HMLE_sh_eGFP cells, dose response, counter-screen for breast cancer stem cell project, cell-based, luminescence, dry powder, set 3 (AID 493196)
Inconclusive results are not listed.
Assign AC50 to each entry below.

Known results for molecules:
Cc1ccc2nc(NC(=O)c3cccc(-c4cc5ccccc5oc4=O)c3)sc2c1    1.85 µM
CN(c1ccccc1)S(=O)(=O)c1ccc(-c2ccccc2)cc1    14.4 µM
C/C(=N\NC(=O)c1cc(-c2cccc([N+](=O)[O-])c2)n[nH]1)c1ccccc1O    3.52 µM
CCCCCCc1cc2cc(S(=O)(=O)c3ccc(Cl)cc3)c(=O)oc2cc1O    0.965 µM
O=C(Nc1ccccc1N1CCCC1)c1cccc(-c2cc3ccccc3oc2=O)c1    7.97 µM
Nc1cc(Cl)ccc1Oc1ccc2ccccc2c1    9.73 µM
CC(=O)c1cccc(NS(=O)(=O)c2cc(-c3cnc(C4CC4)o3)ccc2C)c1    2.67 µM
COC(=O)c1c(NC(=O)c2ccccc2)sc2c1CC(C)(C)OC2    13.4 µM
Cc1onc(-c2ccccc2)c1C(=O)Nc1sc2c(c1C#N)CCC(C)C2 (configuration not stated)    6.9 µM
O=C1NC(=Nc2ccc(Cl)cc2)SC1Cc1cccc(Cl)c1Cl (configuration not stated)    14.5 µM

Respectfully, I request AC50 for each entry included below.
1. CCN1C(=O)/C(=C\N2CCN(c3cccc(Cl)c3)CC2)SC1=S
2. CC(C)(C)c1ccc2c(c1)OC(C(=O)NN=Cc1ccc[nH]1)CO2 (mixture of isomers)

1. 11.8 µM
2. 19.6 µM

Hello, the source for this data is PubChem BioAssay AID493196, in case you need it.
